# test_target: human CMKLR1 (Homo sapiens)
# Construct: host or cells: HEK293A (Invitrogen), stably expressing human Gα15
# Sequence (Q99788 1-373): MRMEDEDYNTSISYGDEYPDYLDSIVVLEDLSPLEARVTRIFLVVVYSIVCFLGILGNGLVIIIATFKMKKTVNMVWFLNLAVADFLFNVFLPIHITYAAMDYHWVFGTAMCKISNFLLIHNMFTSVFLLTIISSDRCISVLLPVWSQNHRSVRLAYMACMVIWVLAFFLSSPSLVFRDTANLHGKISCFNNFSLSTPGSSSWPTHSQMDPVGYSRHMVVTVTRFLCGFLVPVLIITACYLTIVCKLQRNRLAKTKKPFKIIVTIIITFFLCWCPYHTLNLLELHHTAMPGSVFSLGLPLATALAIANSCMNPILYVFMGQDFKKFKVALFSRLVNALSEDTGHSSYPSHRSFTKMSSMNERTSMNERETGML
# assay_name: Ca2+ mobilization (CellLux imaging) agonist assay in HEK293A cells expressing CMKLR1 and Gα15
# Format: cell-based
# measurement_parameters: Ca2+ mobilization, CMKLR1; decimal comma; NR where no EC50 is given; read-out: EC50
pEC50: −log10 of the molar value. Ends that are not written are not given here.
test_readout: pEC50

INSERT INTO measurements (substance, experimental_result) VALUES
  ('LLPGLFLKL-OH [compound 74]', 5.29),
  ('YFPGYFAFG-NH2 [compound 11]', 5.58),
  ('YFPGQFAFQ-OH [compound 50]', 7.28),
  ('PGPGQFAFF-OH [compound 59]', 6.47),
  ('YFPGQFAFK-NH2 [compound 2]', 7.43),
  ('FYPGQWAYS-NH2 [compound 20]', 4.89),
  ('FLPGQYAFL-OH [compound 46]', 7.87),
  ('YFPGQYAFF-OH [compound 30]', 8.72),
  ('WYPGNFAFS-NH2 [compound 16]', 5.42),
  ('YLPGQGAFP-OH [compound 49]', 7.54);

(a) FLPGQYAFK-OH [compound 64]
(b) FPPGQGAFK-OH [compound 66]
# argmax over pEC50 for candidates a and b Kindly give the label for the entry you pick.
a

(a) PLPGQFQFK-OH [compound 70]
(b) YFLGQFAFK-OH [compound 76]
# argmax over pEC50 for candidates a and b Kindly give the label for the entry you pick.
a
